molecular target: 4'-phosphopantetheinyl transferase ffp (Bacillus subtilis); experiment: qHTS Assay for Inhibitors of Bacillus subtilis Sfp phosphopantetheinyl transferase (PPTase); details: Biochemical Sfp PPTase activity;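 note: the enzyme is Sfp with the accession as filed and its product quenches rhodamine fluorescence; 0% = enzyme reaction without inhibitor and -100% = no enzyme wells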
Screen size: about 310,000 compounds; about 11,000 (3.5%) were called active. About 4% were inconclusive and are not listed. Only a selection was taken, and actives are over-represented in it overall.
# largest response in the series, negative = inhibition values compiled below
Answer with a number only, understood to be in %.

Recorded results for 8 compounds are shown here.
(Q) Can you look up largest response in the series, negative = inhibition on 4'-phosphopantetheinyl transferase ffp (Bacillus subtilis) for "N[C@H](C(=O)O)c1cc(=O)[nH]o1" ?
(A) 2.79

(Q) Same read-out for "O=C(CCN1CCCCC1)NCC(=O)Nc1ccc(Br)cc1C(=O)c1ccccc1" ?
(A) -17.5

(Q) // same read-out, input: "COc1ccccc1NC(=O)N1C[C@@H]2C[C@@H](C1)c1cccc(=O)n1C2"
(A) 13.6

(Q) Follow-up entry: CC(=O)OC1C2CCC3C1(CC(O)[C@@]1(O)[C@@H](CC(O)C1(C)C)[C@]3(C)O)C[C@@]2(C)O (stereo partly drawn)
(A) 6.04

(Q) Subsequent entry: CCC1(c2ccccc2)C(=O)NC(=O)N(C)C1=O (stereo not drawn)
(A) 9.18

(Q) "CNP1(NC)=Nc2nn(-c3ccccc3)c(N)c2C(c2ccccc2)=N1" ?
(A) 2.05

(Q) Now give it for "CC[C@]1(O)C(=O)OCc2c1cc1n(c2=O)Cc2cc3ccccc3nc2-1" too.
(A) 6.01

(Q) Next record, please: CNC(C)[C@@H](O)c1ccccc1 (stereo partly drawn)
(A) 20.7

Continuing:
(Q) Recall the recorded largest response in the series, negative = inhibition for "COP(=O)(NS(=O)(=O)c1ccccc1)OC" with 4'-phosphopantetheinyl transferase ffp (Bacillus subtilis) and state it.
(A) 17.4

(Q) One more compound: "CN(C)C[C@H]1CCCC[C@]1(O)c1cccc(O)c1"
(A) 5.94

(Q) Same thing, different compound: "O=C(N/N=C/c1ccc([N+](=O)[O-])o1)c1cc([N+](=O)[O-])cc([N+](=O)[O-])c1O"
(A) -16.6

(Q) // same read-out, input: "CCc1nnc(NS(=O)(=O)c2ccc(N=Cc3c(O)n(-c4ccccc4)c(=O)[nH]c3=O)cc2)s1"
(A) -8.17

(Q) Next up: "CCN(CC)c1nc(C)cc(OP(=S)(OC)OC)n1"
(A) 6.37

(Q) Try this compound next: "CCOC(=O)C1(CCc2ccccc2)CCN(Cc2ccco2)CC1"
(A) -10.9

(Q) Try "C[C@H]1C/C=C/[C@@H]2[C@@H]3O[C@]3(C)[C@@H](C)[C@H]3[C@H](Cc4ccccc4)NC(=O)[C@]32OC(=O)O/C=C/[C@](C)(O)C1=O" next.
(A) -0.438

* * *

target: 4'-phosphopantetheinyl transferase ffp (Bacillus subtilis) (UniProt Q9F4F7); test: qHTS Assay for Inhibitors of Bacillus subtilis Sfp phosphopantetheinyl transferase (PPTase); settings: Biochemical Sfp PPTase activity;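 note: the enzyme is Sfp with the accession as filed and its product quenches rhodamine fluorescence; 0% = enzyme reaction without inhibitor and -100% = no enzyme wells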
Screen size: about 310,000 compounds; about 11,000 (3.5%) were called active. Another 4% or so got no clear call; they are omitted. Only a selection was taken, and actives are over-represented in it overall.
We begin with a simple list: items and their reported largest response in the series, negative = inhibition.

// solved cases for largest response in the series, negative = inhibition follow
(Q) Name the reported largest response in the series, negative = inhibition value associated with the molecule C=CCN1CCC23c4c5ccc(O)c4O[C@H]2C(=O)CC[C@@]3(O)C1C5 (stereo partly drawn)
(A) 7.15% (inactive)

(Q) Quick one: "CCN1C[C@@]2(COC)CC[C@H](OC)[C@]34[C@@H]1[C@]1(OCO[C@@]15C[C@@H](OC)C1C[C@H]3[C@H]5[C@@H]1OC)[C@H](O)[C@@H]24"
(A) 4.99% (inactive)

(Q) Let us now turn to C[C@@]12CCC3C(CC[C@@H]4CC(O)CC[C@@]34C)C1CCC2O (stereo partly drawn)
(A) 7.22% (inactive)

(Q) Proceed to "COc1ccccc1N=Nc1c(O)[nH]c(=S)[nH]c1=O"
(A) -20.4% (inactive)

Now consider a different molecule.
(Q) Field request: largest response in the series, negative = inhibition | item: "C[C@@H]1C[C@H]2CC[C@H](O2)[C@H](C)C(=O)O[C@@H](C)C[C@@H]2CC[C@@H](O2)[C@@H](C)C(=O)O[C@H](C)C[C@H]2CC[C@H](O2)[C@H](C)C(=O)O[C@@H](C)C[C@@H]2CC[C@@H](O2)[C@@H](C)C(=O)O1"
(A) 6.1% (inactive)

// provenance: PubChem BioAssay AID1490
